test system: UACC-62 melanoma; experiment: NCI-60 one-dose screen, 48 h (100 = growth as untreated, 0 = no growth, -100 = all killed); details: 10 µM unless noted
Compounds without any hit were thinned out: in the full panel of roughly 83,000, 20% have a hit.
ASSAY_ENDPOINT: growth (%)
Give your result in % as a bare value.

These recorded examples may help you get a feel for the data.
INSERT INTO assay_data (compound, experimental_target, observed_measurement) VALUES
  ('N#Cc1c(NC(=O)c2cccc(C(F)(F)F)c2F)sc2c1CCC(=O)C2', 'UACC-62 melanoma', -56.6),
  ('Cc1cc(-c2ccc(Cl)cc2)n(Cc2nnc(SCC(=O)Nc3ccc(S(N)(=O)=O)cc3)n2-c2ccc([N+](=O)[O-])cc2)n1', 'UACC-62 melanoma', 77.4),
  ('Cc1cc(C(NC(=O)CCCCCNc2cccc3c2C(=O)N(C2CCC(=O)NC2=O)C3=O)c2ccc3c(c2)OC(F)(F)O3)c(O)c2ncccc12 (centres undefined)', 'UACC-62 melanoma', 63.3),
  ('NC(=O)c1cccc(-n2ccc3cc(NC(=O)Nc4ccc(N5CCOCC5)c(C(F)(F)F)c4)ccc32)n1', 'UACC-62 melanoma', -16.1);

Complete the entry with growth for "O=C1C(c2ccccc2)=C(N2CCc3ccccc32)OC1(Cl)Cl"
81.4

Complete the entry with growth for "COc1ccc(S(=O)(=O)NCCCNc2nccc(-c3cn(C(C)(C)C)nc3-c3ccc(Cl)c(OC)c3)n2)cc1"
61.2

Complete the entry with growth for "COc1ccc2c(c1)c(-c1cc(N)n3nc(-c4cn(C)c5ccc(OC)cc45)cc3n1)cn2C"
100

Complete the entry with growth for CC(=O)N1C(=S)NC(=O)C1CC(C)C (centres undefined)
93.7

Complete the entry with growth for "CCNC(=O)Oc1ccc(/C(=C(/C)c2ccccc2)c2ccc(OCCN3CCCCCC3)cc2)cc1"
16.5

----------
Test system: OVCAR-4 ovarian
Test: NCI-60 one-dose screen, 48 h (100 = growth as untreated, 0 = no growth, -100 = all killed)
Details: 10 µM unless noted
Procedure: Growth inhibition of the OVCAR-4 human tumor cell line is measured as a screen for anti-cancer activity. Cells are grown in 96 well plates and exposed to the test compound for 48 hours. Compounds are tested at a single concentration, which is 10^-5 M for most compounds. The reported endpoint is percent growth (GI% or GIPRCNT), where numbers from 0 - 100% represent growth inhibition, and numbers from -100% - 0 represent cell death. For example, a value of 40 represents 60% growth inhibition. […]
About 83,000 compounds went through this panel and 20% of them were active in at least one assay; those are over-represented in the sample as a whole.
Rule: growth of 90% or more gives condition met; anything lower gives condition not met.

The examples below pair each entry with its known result.
INSERT INTO results (compound, experimental_target, class_name) VALUES
  ('CN1CCN(c2ccc(/C=N/n3cnc4oc(-c5ccccc5)cc4c3=N)cc2)CC1', 'OVCAR-4 ovarian', 'condition not met'),
  ('CC(C)c1ccc(NCc2cn(-c3ccc(C(=O)O)cc3)nc2-c2cc(C(F)(F)F)cc(C(F)(F)F)c2)cc1', 'OVCAR-4 ovarian', 'condition met'),
  ('Cc1cc2ncc(-c3cc4ccccc4c(N4CCN(C)CC4)n3)nc2cc1C', 'OVCAR-4 ovarian', 'condition not met'),
  ('O=C(CN1CCN(c2cc(=O)[nH]c3ccc(F)cc23)CC1)Nc1ccc(Cl)cc1', 'OVCAR-4 ovarian', 'condition not met'),
  ('O=C(/C=C/c1ccc(F)cc1)c1ccc(O)cc1', 'OVCAR-4 ovarian', 'condition met'),
  ('CC1(C)[C@@H](O)CC[C@]2(C)[C@H]3CC[C@@H]4[C@H]5[C@H](C(=O)/C=C\c6ccc([N+](=O)[O-])cc6)CC[C@]5(O)CC[C@@]4(C)[C@]3(C)CC[C@@H]12', 'OVCAR-4 ovarian', 'condition not met');

Reported growth reaches at least 90% for "C[C@H]1c2[nH]c3ccccc3c2C[C@H]2C(=O)N(CCCCCCC(=O)NO)CC(=O)N21" ?
condition met

Reported growth reaches at least 90% for "CC(=O)Nc1cccc(Nc2nc(N[C@@H](C)c3ccccc3)c3ccccc3n2)c1" ?
condition not met

Reported growth reaches at least 90% for "CCCCCCCn1cc2c(N[C@H](C)c3ccccc3)ncnc2n1" ?
condition met

Reported growth reaches at least 90% for "COc1ccc2c(c1)c(CC(=O)[Se]CC(=O)O)c(C)n2C(=O)c1ccc(Cl)cc1" ?
condition met

Reported growth reaches at least 90% for "COc1ccc2c(c1)c(CC(=O)[Se]CC#N)c(C)n2C(=O)c1ccc(Cl)cc1" ?
condition not met

Reported growth reaches at least 90% for "COc1cc(-c2nn(C(C)(C)C)cc2-c2ccnc(NCCCNS(=O)(=O)c3ccc(Cl)cc3)n2)ccc1Cl" ?
condition not met

Reported growth reaches at least 90% for "CN1CCN(Cc2ccc(NC(=O)c3cncc(C#Cc4cnc5ccc(N6CCN(C)CC6)nn45)c3)cc2C(F)(F)F)CC1" ?
condition not met

Reported growth reaches at least 90% for "Cn1ccnc1C(=O)/C=C/c1ccc(CNC(=O)c2ccc(S(F)(F)(F)(F)F)cc2)cc1" ?
condition not met

Reported growth reaches at least 90% for "NC(N)=Nc1ccc(Oc2cccc(NC(N)=Nc3ccc(Br)c(C(F)(F)F)c3)c2)cc1" ?
condition not met

Reported growth reaches at least 90% for CCCn1cnc2c(c1=N)C(c1ccc(OC)cc1)c1sc3c(CC)cccc3c1O2 (centres undefined) ?
condition not met

Reported growth reaches at least 90% for "Cc1nn(-c2ccccc2)c2ncnc(N/N=C/c3ccccc3)c12" ?
condition not met
